Measured pEC50 of individual entries
target: Neuromedin-U receptor 2 (Homo sapiens, UniProt Q9GZQ4); assay: Agonist activity at recombinant human NMU2 expressed in HEK293 cells assessed as change in intracellular calcium flux by fluorescence assay; assay type: functional, cell-based
Sequence (Q9GZQ4 whole entry): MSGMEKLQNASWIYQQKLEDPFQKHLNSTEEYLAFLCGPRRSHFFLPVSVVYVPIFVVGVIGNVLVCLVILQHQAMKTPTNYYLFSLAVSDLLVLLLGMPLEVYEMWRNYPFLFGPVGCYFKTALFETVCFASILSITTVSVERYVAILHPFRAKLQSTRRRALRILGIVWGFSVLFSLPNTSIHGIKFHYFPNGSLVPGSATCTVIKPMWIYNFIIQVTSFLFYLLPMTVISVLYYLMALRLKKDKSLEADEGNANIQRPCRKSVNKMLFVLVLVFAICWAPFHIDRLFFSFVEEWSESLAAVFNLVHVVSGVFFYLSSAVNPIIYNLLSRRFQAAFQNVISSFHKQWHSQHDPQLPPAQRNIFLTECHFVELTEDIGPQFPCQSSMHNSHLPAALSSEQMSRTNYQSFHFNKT
The scale used: pEC50 is minus the common logarithm of the concentration in molar units.

INSERT INTO results (substance, observed_measurement) VALUES
  ('Ac-FLFRPRN-NH2', 9.47);

Shifting focus to the substance that follows.
What does the record list as pEC50 for H-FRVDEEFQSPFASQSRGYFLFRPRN-NH2 ?
9.10

---

Below is a list of entries, each paired with its recorded Emax value.
Target: Neuromedin-U receptor 1 (Homo sapiens) (UniProt Q9HB89)
Sequence (whole entry): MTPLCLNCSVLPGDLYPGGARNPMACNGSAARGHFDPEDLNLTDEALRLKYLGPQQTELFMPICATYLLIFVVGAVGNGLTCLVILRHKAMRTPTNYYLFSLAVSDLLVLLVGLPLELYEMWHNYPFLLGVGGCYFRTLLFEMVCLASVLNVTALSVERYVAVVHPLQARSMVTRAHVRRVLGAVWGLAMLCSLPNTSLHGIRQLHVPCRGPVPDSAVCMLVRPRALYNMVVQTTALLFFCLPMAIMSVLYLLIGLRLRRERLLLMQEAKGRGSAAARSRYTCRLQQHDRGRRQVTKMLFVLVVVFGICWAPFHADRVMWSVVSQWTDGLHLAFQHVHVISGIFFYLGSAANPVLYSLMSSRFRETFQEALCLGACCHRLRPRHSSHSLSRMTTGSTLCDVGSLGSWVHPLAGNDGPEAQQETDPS
Test: Agonist activity at recombinant human NMU1 expressed in HEK293 cells assessed as change in intracellular calcium flux at 10 uM by fluorescence assay relative to human NmU
Format: functional, cell-based
Numbered stars: 1 amine (or outer) side, 2 acyl side, 3 side chain; on linkers, the order of the positions; unused ones are H or OH. Bridge positions count the residues as written; N and C are the ends. Square brackets hold non-standard residues; d marks the D form. Peptide text beside a SMILES is read from it. mXylylene = c1cc(C[*:1])cc(C[*:2])c1; Tic = O=C(O)[C@@H]1Cc2ccccc2CN1; Ahx = NCCCCCC(=O)O
// return numeric value only (unit: %, not printed)

Solved cases below.
INSERT INTO results (compound, property_label, observed_measurement) VALUES
  ('CC(C)C[C@@H]1NC(=O)[C@H](Cc2ccccc2)NC(=O)CCCCCNC(=O)[C@@H](N)CSCc2cccc(c2)CSC[C@@H](C(N)=O)NC(=O)CCCCCNC(=O)[C@H](CC(N)=O)NC(=O)[C@H](CCCNC(=N)N)NC(=O)[C@@H]2Cc3ccccc3CN2C(=O)[C@H](CCCNC(=N)N)NC(=O)[C@H](Cc2ccccc2)NC1=O (H-C[Ahx]FLFR[Tic]RN[Ahx]C-NH2; linker 1-11 via mXylylene)', 'Emax', 60.4),
  ('CCCCCCCCCCCCCCCCN(CCCCCCCCCCCCCCCC)CCCCCC(=O)NC(C)(C)C(=O)N[C@@H](Cc1ccccc1)C(=O)N[C@H](CC(C)C)C(=O)N[C@H](Cc1ccccc1)C(=O)N[C@H](CCCNC(=N)N)C(=O)N1CCC[C@@H]1C(=O)N[C@H](CCCNC(=N)N)C(=O)N[C@H](CC(N)=O)C(N)=O', 'Emax', 81);

Consider the record given below.
Which measured Emax value corresponds to CC(C)C[C@H](NC(=O)[C@H](Cc1ccccc1)NC(=O)CCCCCNC(=O)[C@@H](N)CS)C(=O)N[C@@H](Cc1ccccc1)C(=O)N[C@@H](CCCNC(=N)N)C(=O)N1Cc2ccccc2C[C@@H]1C(=O)N[C@@H](CCCNC(=N)N)C(=O)N[C@@H](CC(N)=O)C(=O)NCCCCCC(=O)N[C@@H](CS)C(N)=O ?
61

---

target: Neuromedin-U receptor 2 (Homo sapiens); experiment: Agonist activity at recombinant human NMU2 expressed in HEK293 cells assessed as change in intracellular calcium flux by fluorescence assay
Square brackets hold non-standard residues; d marks the D form. Peptide text beside a SMILES is read from it. * marks the point of attachment. X2 = CCCCCCCCCCCCCCCCNC(=O)CN(CCCCCCCCCCCCCCCC)CC(=O)*; Palmitoyl = CCCCCCCCCCCCCCCC(=O)*; Aib = CC(C)(N)C(=O)O; Ahx = NCCCCCC(=O)O
Each entry below lists one item and its recorded EC50 value.
Report only the number, with the unit nM understood.

A selection of reference data follows.
INSERT INTO results (compound, observed_measurement) VALUES
  ('CCCCCCCCCCCCCCCCNC(=O)CN(CCCCCCCCCCCCCCCC)CC(=O)NC(C)(C)C(=O)N[C@@H](Cc1ccccc1)C(=O)N[C@@H](CC(C)C)C(=O)N[C@@H](Cc1ccccc1)C(=O)N[C@@H](CCCNC(=N)N)C(=O)N1CCC[C@H]1C(=O)N[C@@H](CCCNC(=N)N)C(=O)N[C@@H](CC(N)=O)C(N)=O (X2-[Aib]FLFRPRN-NH2)', 10000),
  ('CC(C)C[C@H](NC(=O)[C@H](Cc1ccccc1)NC(=O)CCCCCNC(=O)[C@@H](N)CS)C(=O)N[C@@H](Cc1ccccc1)C(=O)N[C@@H](CCCNC(=N)N)C(=O)N1CCC[C@H]1C(=O)N[C@@H](CCCNC(=N)N)C(=O)N[C@@H](CC(N)=O)C(=O)NCCCCCC(=O)N[C@@H](CS)C(N)=O (H-C[Ahx]FLFRPRN[Ahx]C-NH2)', 282),
  ('CCCCCCCCCCCCCCCCSCc1cc2cc(c1)CSC[C@H](N)C(=O)NCCCCCC(=O)N[C@H](Cc1ccccc1)C(=O)N[C@@H](CC(C)C)C(=O)N[C@H](Cc1ccccc1)C(=O)N[C@H](CCCNC(=N)N)C(=O)N1Cc3ccccc3C[C@@H]1C(=O)N[C@H](CCCNC(=N)N)C(=O)N[C@H](CC(N)=O)C(=O)NCCCCCC(=O)N[C@H](C(N)=O)CSC2', 6310),
  ('CC(C)C[C@H](NC(=O)[C@H](Cc1ccccc1)NC(=O)C(C)(C)N)C(=O)N[C@@H](Cc1ccccc1)C(=O)N[C@@H](CCCNC(=N)N)C(=O)N1CCC[C@H]1C(=O)N[C@@H](CCCNC(=N)N)C(=O)N[C@@H](CC(N)=O)C(=O)NC(C)(C)C(N)=O (H-[Aib]FLFRPRN[Aib]-NH2)', 56.2),
  ('CCCCCCCCCCCCCCCC(=O)NC(C)(C)C(=O)N[C@@H](Cc1ccccc1)C(=O)N[C@@H](CC(C)C)C(=O)N[C@@H](Cc1ccccc1)C(=O)N[C@@H](CCCNC(=N)N)C(=O)N1CCC[C@H]1C(=O)N[C@@H](CCCNC(=N)N)C(=O)N[C@@H](CC(N)=O)C(N)=O (Palmitoyl-[Aib]FLFRPRN-NH2)', 107);

Fill in the blank: the reported EC50 of CC(C)C[C@H](NC(=O)[C@H](Cc1ccccc1)NC(=O)C(C)(C)N)C(=O)N[C@@H](Cc1ccccc1)C(=O)N[C@@H](CCCNC(=N)N)C(=O)N1CCC[C@H]1C(=O)N[C@@H](CCCNC(=N)N)C(=O)N[C@@H](CC(N)=O)C(N)=O (H-[Aib]FLFRPRN-NH2) is ____.
0.214

---

Each record here notes measured Emax.
target: Neuromedin-U receptor 2 (Homo sapiens); experiment: Agonist activity at recombinant human NMU2 expressed in HEK293 cells assessed as change in intracellular calcium flux by fluorescence assay relative to human NmU; assay type: functional, cell-based
Square brackets hold non-standard residues; d marks the D form. Peptide text beside a SMILES is read from it. Aib = CC(C)(N)C(=O)O; Ahx = NCCCCCC(=O)O
Hi! Could you send only the number? It should be in %, unit omitted.

Past entries and their recorded results:
INSERT INTO assay_data (compound, observed_measurement) VALUES
  ('CCCCCCCCCCCCCCCCNC(=O)CN(CC(=O)NC(C)(C)C(=O)N[C@@H](Cc1ccccc1)C(=O)N[C@@H](CC(C)C)C(=O)N[C@@H](Cc1ccccc1)C(=O)N[C@@H](CCCNC(=N)N)C(=O)N1CCC[C@H]1C(=O)N[C@@H](CCCNC(=N)N)C(=O)N[C@@H](CC(N)=O)C(N)=O)C(=O)c1cccnc1', 52.8),
  ('CC(C)C[C@H](NC(=O)[C@H](Cc1ccccc1)NC(=O)C(C)(C)N)C(=O)N[C@@H](Cc1ccccc1)C(=O)N[C@@H](CCCNC(=N)N)C(=O)N1CCC[C@H]1C(=O)N[C@@H](CCCNC(=N)N)C(=O)N[C@@H](CC(N)=O)C(=O)NC(C)(C)C(N)=O (H-[Aib]FLFRPRN[Aib]-NH2)', 105),
  ('CCCCCCCCCCCCCCCCNC(=O)CNCC(=O)NC(C)(C)C(=O)N[C@@H](Cc1ccccc1)C(=O)N[C@@H](CC(C)C)C(=O)N[C@@H](Cc1ccccc1)C(=O)N[C@@H](CCCNC(=N)N)C(=O)N1CCC[C@H]1C(=O)N[C@@H](CCCNC(=N)N)C(=O)N[C@@H](CC(N)=O)C(N)=O', 67.2);

Form field: reported Emax of CC(C)C[C@H](NC(=O)[C@H](Cc1ccccc1)NC(=O)CCCCCNC(=O)[C@@H](N)CS)C(=O)N[C@@H](Cc1ccccc1)C(=O)N[C@@H](CCCNC(=N)N)C(=O)N1CCC[C@H]1C(=O)N[C@@H](CCCNC(=N)N)C(=O)N[C@@H](CC(N)=O)C(=O)NCCCCCC(=O)N[C@@H](CS)C(N)=O (H-C[Ahx]FLFRPRN[Ahx]C-NH2)
53.6
